biological target: Bcl-xL, Q07817; assay: peptide SPOT array, c-Myc-tagged receptor at 1 uM or 100 nM, anti-c-Myc-Cy3
Sequence (Q07817 1-209): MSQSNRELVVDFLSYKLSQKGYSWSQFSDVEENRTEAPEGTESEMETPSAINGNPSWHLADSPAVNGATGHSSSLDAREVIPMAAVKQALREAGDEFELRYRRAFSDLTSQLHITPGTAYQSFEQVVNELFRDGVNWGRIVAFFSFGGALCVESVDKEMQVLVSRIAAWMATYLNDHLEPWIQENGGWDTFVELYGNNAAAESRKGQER
If the reported SPOT signal as a fraction of Bim BH3's signal on the same receptor and array equals or exceeds 0.03, assign Condition met. If not, assign Condition not met.

Examples with answers:
INSERT INTO assay_data (binder, cat) VALUES
  ('NWFGDWSTEALYQVGKEFTSKMDLEK [DYNC1H1]', 'Condition met'),
  ('KVFLNKAADFIEELSSLFKSHSSKRI [MYPN]', 'Condition met'),
  ('SHFVACMTAIDNQMGDQHYSFYIETF [DOCK2]', 'Condition met'),
  ('RHFVIRRGQVLREIAEEYGGVMVSFP [HDLBP]', 'Condition met'),
  ('LRCEMASTGEVACFLEGIHTAFLKAM [CPS1]', 'Condition not met'),
  ('RAGELDRARELMRIGKRFGAVLEALE [CC2D1B]', 'Condition met');

Q. Hi, just wondering whether LWAAQRYGRELRRMLDEFVDSFKKGL [BAD] shows SPOT signal as a fraction of Bim BH3's signal on the same receptor and array of 0.03 or higher.
A. Condition met

Q. // next record FQEAKQFGQKLQDLAEHSDPEVRDKV [ARMCX5]
A. Condition not met
